# Test system: 422866-222-R5-J1-PDC complex spheroid viability
# RUN DESCRIPTION: Anticancer human tumor 422866-222-R5-J1-PDC patient-derived pancreatic adenocarcinoma cell line growth inhibition [POLQ]
# STUDY CONDITIONS: second compound 0.0316 µM; first compound 1 µM; stronger effect = lower value
REPORTED ENDPOINT: viability, T/C (%)
Just the number please, in %, no unit attached.

**Q:** Determine from records and report viability, T/C for CC1COCCN1c1cc(C2(O)CC3CCC(C2)O3)c2cnn(-c3ccn[nH]3)c2n1 (stereo not given) + Nc1ccc(C#CCN(C(=O)Cc2ncc(C(F)(F)F)cc2C(F)(F)F)c2ccc(F)cc2)nn1
**A:** 74.5

**Q:** Determine from records and report viability, T/C for CCc1cc2c(N3CCc4c(cc(Cn5ccnc5)cc4-c4cn(C)nc4C(F)(F)F)C3=O)cc(C)nc2c(OC)n1 + COC1C(OC(N)=O)C(O)C(Oc2ccc3c(O)c(NC(=O)c4ccc(O)c(CC=C(C)C)c4)c(=O)oc3c2C)OC1(C)C
**A:** 129

**Q:** Determine from records and report viability, T/C for COc1cc(C2c3cc4c(cc3C(OC3OC5COC(C)OC5C(O)C3O)C3COC(=O)C23)OCO4)cc(OC)c1O (stereo not given) + Nc1ccc(C#CCN(C(=O)Cc2ncc(C(F)(F)F)cc2C(F)(F)F)c2ccc(F)cc2)nn1
**A:** 49.6

**Q:** Determine from records and report viability, T/C for CCc1c2c(nc3ccc(O)cc13)-c1cc3c(c(=O)n1C2)COC(=O)[C@]3(O)CC + Nc1ccc(C#CCN(C(=O)Cc2ncc(C(F)(F)F)cc2C(F)(F)F)c2ccc(F)cc2)nn1
**A:** 16.2

**Q:** Determine from records and report viability, T/C for CC1COCCN1c1cc(-c2ccnn2C)c2ccnc(-c3ccn[nH]3)c2n1 (stereo not given) + COC1C(OC(N)=O)C(O)C(Oc2ccc3c(O)c(NC(=O)c4ccc(O)c(CC=C(C)C)c4)c(=O)oc3c2C)OC1(C)C
**A:** 40

* * *

For each record, write down the corresponding viability, T/C.
# System: 422866-222-R5-J1-PDC complex spheroid viability
# RUN DESCRIPTION: Anticancer human tumor 422866-222-R5-J1-PDC cell line growth inhibition [POLQ];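 note: spheroids exposed to compounds for one week before readout; percent of DMSO vehicle wells luminescence so 100% = untreated viability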
# STUDY CONDITIONS: second compound 0.1 µM; first compound 10 µM; stronger effect = lower value
Just the number please, in %, no unit attached.

**Q:** Determine from records and report viability, T/C for O=C(c1cc(Cc2n[nH]c(=O)c3ccccc23)ccc1F)N1CCN(C(=O)C2CC2)CC1 + Nc1ccc(C#CCN(C(=O)Cc2ncc(C(F)(F)F)cc2C(F)(F)F)c2ccc(F)cc2)nn1
**A:** 61.4

**Q:** Determine from records and report viability, T/C for CCc1cc2c(N3CCc4c(cc(Cn5ccnc5)cc4-c4cn(C)nc4C(F)(F)F)C3=O)ccnc2c(OC)n1 + Cc1cccc(N(C)C(=O)C2C(O)CCN2c2nc(C)cc(C(F)(F)F)c2C#N)c1
**A:** 99.2

**Q:** Determine from records and report viability, T/C for CNCc1ccc(-c2[nH]c3cc(F)cc4c3c2CCNC4=O)cc1 + Nc1ccc(C#CCN(C(=O)Cc2ncc(C(F)(F)F)cc2C(F)(F)F)c2ccc(F)cc2)nn1
**A:** 82.8

* * *

# Tested on: 422866-222-R5-J1-PDC complex spheroid viability
# RUN DESCRIPTION: Anticancer human tumor 422866-222-R5-J1-PDC cell line growth inhibition [POLQ];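 note: spheroids exposed to compounds for one week before readout; percent of DMSO vehicle wells luminescence so 100% = untreated viability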
# STUDY CONDITIONS: second compound 0.1 µM; first compound 0.1 µM; stronger effect = lower value
REPORTED ENDPOINT: viability, T/C (%)
Just the number please, in %, no unit attached.

**Q:** Answer briefly: viability, T/C recorded on 422866-222-R5-J1-PDC complex spheroid viability for COc1ccc([C@@H](O)c2cc(-c3ncnc4cc(N5CCOCC5)ccc34)c(F)cc2Cl)nn1 + Nc1ccc(C#CCN(C(=O)Cc2ncc(C(F)(F)F)cc2C(F)(F)F)c2ccc(F)cc2)nn1
**A:** 81.8

**Q:** Answer briefly: viability, T/C recorded on 422866-222-R5-J1-PDC complex spheroid viability for C=CC(=O)N1CCN(c2nc(=O)n(-c3c(C)ccnc3C(C)C)c3nc(-c4c(O)cccc4F)c(F)cc23)C(C)C1 (stereo unspecified) + COC1C(OC(N)=O)C(O)C(Oc2ccc3c(O)c(NC(=O)c4ccc(O)c(CC=C(C)C)c4)c(=O)oc3c2C)OC1(C)C
**A:** 28.9

**Q:** Answer briefly: viability, T/C recorded on 422866-222-R5-J1-PDC complex spheroid viability for O=c1[nH]cc(F)c(=O)[nH]1 + COC1C(OC(N)=O)C(O)C(Oc2ccc3c(O)c(NC(=O)c4ccc(O)c(CC=C(C)C)c4)c(=O)oc3c2C)OC1(C)C
**A:** 116

**Q:** Answer briefly: viability, T/C recorded on 422866-222-R5-J1-PDC complex spheroid viability for O=c1[nH]cc(F)c(=O)[nH]1 + Cc1cccc(N(C)C(=O)C2C(O)CCN2c2nc(C)cc(C(F)(F)F)c2C#N)c1
**A:** 92.2

**Q:** Answer briefly: viability, T/C recorded on 422866-222-R5-J1-PDC complex spheroid viability for C=CCn1c(=O)c2cnc(Nc3ccc(N4CCN(C)CC4)cc3)nc2n1-c1cccc(C(C)(C)O)n1 + COC1C(OC(N)=O)C(O)C(Oc2ccc3c(O)c(NC(=O)c4ccc(O)c(CC=C(C)C)c4)c(=O)oc3c2C)OC1(C)C
**A:** 79.4

**Q:** Answer briefly: viability, T/C recorded on 422866-222-R5-J1-PDC complex spheroid viability for CC1COCCN1c1cc(C2(O)CC3CCC(C2)O3)c2cnn(-c3ccn[nH]3)c2n1 (stereo unspecified) + Cc1cccc(N(C)C(=O)C2C(O)CCN2c2nc(C)cc(C(F)(F)F)c2C#N)c1
**A:** 55.5

**Q:** Answer briefly: viability, T/C recorded on 422866-222-R5-J1-PDC complex spheroid viability for CNCc1ccc(-c2[nH]c3cc(F)cc4c3c2CCNC4=O)cc1 + COC1C(OC(N)=O)C(O)C(Oc2ccc3c(O)c(NC(=O)c4ccc(O)c(CC=C(C)C)c4)c(=O)oc3c2C)OC1(C)C
**A:** 109

**Q:** Answer briefly: viability, T/C recorded on 422866-222-R5-J1-PDC complex spheroid viability for COc1cc2cc(C(=O)CCC(=O)O)sc2cc1OC + Cc1cccc(N(C)C(=O)C2C(O)CCN2c2nc(C)cc(C(F)(F)F)c2C#N)c1
**A:** 91.1

**Q:** Answer briefly: viability, T/C recorded on 422866-222-R5-J1-PDC complex spheroid viability for CC(C)n1c(=O)n(C)c2cnc3cc(F)c(-c4ccc(OCCCN5CCCCC5)nc4)cc3c21 + Nc1ccc(C#CCN(C(=O)Cc2ncc(C(F)(F)F)cc2C(F)(F)F)c2ccc(F)cc2)nn1
**A:** 102

**Q:** Answer briefly: viability, T/C recorded on 422866-222-R5-J1-PDC complex spheroid viability for COc1cccc2c1C(=O)c1c(O)c3c(c(O)c1C2=O)CC(O)(C(=O)CO)CC3OC1CC(N)C(O)C(C)O1 (stereo unspecified) + Nc1ccc(C#CCN(C(=O)Cc2ncc(C(F)(F)F)cc2C(F)(F)F)c2ccc(F)cc2)nn1
**A:** 54.3

**Q:** Answer briefly: viability, T/C recorded on 422866-222-R5-J1-PDC complex spheroid viability for CCc1cc2c(N3CCc4c(cc(Cn5ccnc5)cc4-c4cn(C)nc4C(F)(F)F)C3=O)cc(C)nc2c(OC)n1 + Nc1ccc(C#CCN(C(=O)Cc2ncc(C(F)(F)F)cc2C(F)(F)F)c2ccc(F)cc2)nn1
**A:** 97.4

* * *

# Test system: 422866-222-R5-J1-PDC complex spheroid viability
# RUN DESCRIPTION: Anticancer human tumor 422866-222-R5-J1-PDC cell line growth inhibition [POLQ];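 note: spheroids exposed to compounds for one week before readout; percent of DMSO vehicle wells luminescence so 100% = untreated viability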
# STUDY CONDITIONS: second compound 0.316 µM; first compound 3.16 µM; stronger effect = lower value
For each record, write down the corresponding viability, T/C.
Just the number please, in %, no unit attached.

**Q:** Determine from records and report viability, T/C for CNCc1ccc(-c2[nH]c3cc(F)cc4c3c2CCNC4=O)cc1 + Cc1cccc(N(C)C(=O)C2C(O)CCN2c2nc(C)cc(C(F)(F)F)c2C#N)c1
**A:** 80.9

**Q:** Determine from records and report viability, T/C for CC1COCCN1c1cc(-c2ccnn2C)c2ccnc(-c3ccn[nH]3)c2n1 (stereo unspecified) + Cc1cccc(N(C)C(=O)C2C(O)CCN2c2nc(C)cc(C(F)(F)F)c2C#N)c1
**A:** 62.4

**Q:** Determine from records and report viability, T/C for CC1COCCN1c1cc(C2(O)CC3CCC(C2)O3)c2cnn(-c3ccn[nH]3)c2n1 (stereo unspecified) + Cc1cccc(N(C)C(=O)C2C(O)CCN2c2nc(C)cc(C(F)(F)F)c2C#N)c1
**A:** 80.7

**Q:** Determine from records and report viability, T/C for O=c1[nH]cc(F)c(=O)[nH]1 + Cc1cccc(N(C)C(=O)C2C(O)CCN2c2nc(C)cc(C(F)(F)F)c2C#N)c1
**A:** 81.1

**Q:** Determine from records and report viability, T/C for CC1COCCN1c1cc(C2(S(C)(=N)=O)CC2)nc(-c2ccnc3[nH]ccc23)n1 (stereo unspecified) + COC1C(OC(N)=O)C(O)C(Oc2ccc3c(O)c(NC(=O)c4ccc(O)c(CC=C(C)C)c4)c(=O)oc3c2C)OC1(C)C
**A:** 48

**Q:** Determine from records and report viability, T/C for CC1COCCN1c1cc(C2(S(C)(=N)=O)CC2)nc(-c2ccnc3[nH]ccc23)n1 (stereo unspecified) + Nc1ccc(C#CCN(C(=O)Cc2ncc(C(F)(F)F)cc2C(F)(F)F)c2ccc(F)cc2)nn1
**A:** 32.5
